Tested on: Hs-578T
Experiment: NCI tumour cell line growth inhibition, 48 h
The source made the active and inactive calls. Cut-off read from the data, not from the text of the source: active = GI50 up to about 1.1 µM and inactive = higher.

MOLECULE	GI50
COC(=O)C(Cc1ccccc1)NP(=O)(O)OCC1OC(n2cc(I)c(=O)[nH]c2=O)CC1O (stereo not given)	> 100 µM (inactive)
O=CC(O)C(O)C1OC(=O)c2cc(O)c(O)c(O)c2C2=C(O)C(O)=C3OC(=O)c4c(c(O)c(O)c5c4C3C2C(=O)O5)-c2c(cc(O)c(O)c2O)C(=O)OCC1O (stereo not given)	67.1 µM (inactive)
Clc1cc2c(c(CSC3=NCN(CC4CC4)CN3)c1)OCOC2	33.7 µM (inactive)
COc1ccc2c(c1)C(N)CC2=O (stereo not given)	> 100 µM (inactive)
Cn1c(=O)c2nc(CCCCc3nc4c(=O)n(C)c(=S)n(C)c4[nH]3)[nH]c2n(C)c1=S	> 100 µM (inactive)

---

Tested on: NCI-H460
Test: NCI tumour cell line growth inhibition, 48 h
The source made the active and inactive calls. Rule as the data show it: active = GI50 up to about 1.1 µM and inactive = higher.
Classes used: active, inactive

MOLECULE	QUALITATIVE LABEL
O=C1N(CN2CCOCC2)CN(CN2CCOCC2)C(=O)N1Cc1ccc(-c2ccc(CN3C(=O)N(CN4CCOCC4)CN(CN4CCOCC4)C3=O)cc2)cc1	inactive
CCOC(=O)NNC(=O)C1CSC(c2ccccc2)N1C(C)=O (centres undefined)	inactive
CC(C)CC12CC3CCC(CNC1=O)C32C (centres undefined)	inactive
Cc1cc(N2CCOCC2)nc2ccc(Cc3ccc4nc(N5CCOCC5)cc(C)c4c3)cc12	inactive
O=[Se](O)O	active
Nc1nc(NCCO)c(N=O)c(=O)[nH]1	inactive
c1ccc2nn(C3CCCCO3)nc2c1 (centres undefined)	inactive
CC(Cn1c(=O)oc2ccccc21)N(C)C (centres undefined)	inactive
N#Cc1c(-c2ccc(Cl)cc2Cl)nc2[nH]nc(S)n2c1=O	inactive
COc1ccc2c(c1)C(O)(C(F)(F)F)c1cc(C(=O)C(F)(F)F)c3ccccc3c1N2 (centres undefined)	inactive
COc1ccc(OC)c(C#Cc2ccc(OC)c(C(=O)NCCc3ccc(F)cc3)c2)c1	inactive
CCOC(=O)C(Cc1ccccc1)NC(=O)c1ccc(/N=N/N(C)C)cc1 (centres undefined)	inactive
O=C1Cc2c([nH]c3ccccc23)-c2cc(Br)ccc2N1	inactive
Nc1cccnc1NCC1(CO)CCCC1	inactive

---

System: SNB-19
Test: NCI tumour cell line growth inhibition, 48 h
Active and inactive are the calls of the source. No stated cut-off is given here; in the data, active = GI50 up to about 1.1 µM and inactive = higher.
Listed molecules paired with reported GI50

COMPOUND STRUCTURE	TESTED SYSTEM	GI50
O=c1[nH]nc(-c2ccc([N+](=O)[O-])cc2)[nH]1	SNB-19	> 100 µM (inactive)
CN1CCN(/C(N)=C(\C#N)C(=O)Nc2ccccc2)CC1	SNB-19	> 100 µM (inactive)
Clc1cc2c(c(CSC3=NCN(CC4CC4)CN3)c1)OCOC2	SNB-19	26.1 µM (inactive)

---

Tested on: RXF 393
Experiment: NCI tumour cell line growth inhibition, 48 h
Activity calls are given as the source filed them. No stated cut-off is given here; in the data, active = GI50 up to about 1.1 µM and inactive = higher.
Entries annotated with measured GI50

COMPOUND	GI50
O=C1C=CC2=[N+]([O-])C(c3ccccc3)(c3ccccc3)/C(=N\c3ccccc3)C2=C1	1.6 µM (inactive)
O=CC(O)C(O)C1OC(=O)c2cc(O)c(O)c(O)c2C2=C(O)C(O)=C3OC(=O)c4c(c(O)c(O)c5c4C3C2C(=O)O5)-c2c(cc(O)c(O)c2O)C(=O)OCC1O (centres undefined)	> 100 µM (inactive)
c1ccc2c(c1)CCC/C2=N\OCC1CO1 (centres undefined)	31.8 µM (inactive)
CCN(CC)CCNC(=O)c1ccc(C)c(OCc2ccccc2)c1[N+](=O)[O-]	52.5 µM (inactive)
Cc1ccc(/C=N/Nc2ccc3ccccc3n2)s1	37.7 µM (inactive)
CNCCCNC1(c2cc3ccccc3s2)CCCCC1	1.36 µM (inactive)
CC(C)(C)C1CC[C@H](O)[C@H]([C@H](O)CC2CC(=O)N(c3ccccc3)C(=O)C2)C1 (some centres undefined)	> 100 µM (inactive)
CN1CCN(C(=S)N(C)C(=O)c2cccs2)CC1	> 100 µM (inactive)
Cc1ccc(/N=N/c2c(O)ccc3ccccc23)c(C)c1	> 100 µM (inactive)
O=NN1C(c2ccccc2)CCCC1c1ccccc1 (centres undefined)	44.5 µM (inactive)
Cc1cc2[nH]c(=NS(=O)(=O)c3cc(C)c(Cl)cc3S)[nH]c2cc1C	> 100 µM (inactive)
Cc1ccc2ccc(O)cc2c1	44.9 µM (inactive)
Cn1c(-c2ccc(/N=N/Nc3ccc(-c4n[nH]c(=S)n4C)cc3)cc2)n[nH]c1=S	11.6 µM (inactive)
O=C1C(Cl)N(c2cccc(Cl)c2)C1c1c[nH]c2ccccc12 (centres undefined)	> 100 µM (inactive)
